# key: entry, value: % inhibition of migration, natural hCCL21, H9 cells, 1:1 molar ratio (4th cell)
Tested system: T1, natural human CCL21 (secreted and isolated from transfected HEK-293T cells) (human, UniProt O00585 24-134)
T1 sequence: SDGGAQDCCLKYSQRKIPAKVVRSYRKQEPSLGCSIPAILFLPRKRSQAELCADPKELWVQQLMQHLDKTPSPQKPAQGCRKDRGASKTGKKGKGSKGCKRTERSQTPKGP
Run description: cell-based or functional assay
Numbers only here, please. The scale is %.

Binder	Readout units	Endpoint value
MOR06935_g3-23_g3j (antibody, V domains shown, also called QBP359; FW repaired germlined MOR06935) VH: EVQLLESGGGLVQPGGSLRLSCAASGFTFNSYSMSWVRQAPGKGLEWVSAISMEGYSKSYADSVKGRFTISRDNSKNTLYLQMNSLRAEDTAVYYCARGYGYYFDVWGQGTLVTVSS VL: SYELTQPLSVSVALGQTARITCGGDSIGSQYASWYQQKPGQAPVLVIYDDNERPSGIPERFSGSNSGNTATLTISRAQAGDEADYYCGSWDSNPTHVFGGGTKLTVLG	%	77
MOR08382_g3-23_gL6 (antibody, human IgG1, kappa, V domains shown) VH: EVQLLESGGGLVQPGGSLRLSCAASGFTFSSYWLNWVRQAPGKGLEWVSYISNQGDDTSYADSVKGRFTISRDNSKNTLYLQMNSLRAEDTAVYYCARDYQYIGDSFDIWGQGTLVTVSS VL: EIVLTQSPATLSLSPGERATLSCRASQYVSYVSLAWYQQKPGQAPRLLIYDASNRATGIPARFSGSGSGTDFTLTISSLEPEDFAVYYCQQYDDLSYTFGQGTKVEIKR	%	70

Pending binder:
Challenge: For the binder MOR08378_g5-51_g2a2 (antibody, human IgG1, lambda, V domains shown) VH: EVQLVQSGAEVKKPGESLKISCKGSGYSFNNYWISWVRQMPGKGLEWMGIIDPTNSQTTYSPSFQGQVTISADKSISTAYLQWSSLKASDTAMYYCARDGYPIFDYWGQGTLVTVSS VL: QSALTQPASVSGSPGQSITISCTGTSSDLGGYNYVSWYQQHPGKAPKLMIYDVNYRPSGVSNRFSGSKSGNTASLTISGLQAEDEADYYCSSYTYYSNSGVFGGGTKLTVLG , what % inhibition of migration, natural hCCL21, H9 cells, 1:1 molar ratio (4th cell) is on record?
Response given: 64
